# credit: paper PMC9087011

Experiment: clinical
Conditions: human, in vivo, 150 mg
VALUE_KIND: Cmax
The reply should read as a number followed by its unit.

Recorded Cmax (compound CC(C)(C)[C@H](NC(=O)C(F)(F)F)C(=O)N1C[C@H]2[C@@H]([C@H]1C(=O)N[C@H](C#N)C[C@@H]1CCNC1=O)C2(C)C ): 668 ng/mL

###

Assay: clinical
Settings: human, in vivo, 500 mg
VALUE_KIND: Cmax (ng/mL)
Please reply with the bare figure in ng/mL and do not write the unit itself.

Recorded Cmax (compound CC(C)(C)[C@H](NC(=O)C(F)(F)F)C(=O)N1C[C@H]2[C@@H]([C@H]1C(=O)N[C@H](C#N)C[C@@H]1CCNC1=O)C2(C)C ): 674
